The following compounds were reported with pIC50 values on Cyclin-dependent kinase 2 (Homo sapiens, UniProt P24941) in different studies.
pIC50: −log10 of the molar value.

N#Cc1cc2cnc(Nc3ccc4c(c3)CCNC4)nc2n(C2CCCC2)c1=O ... 7.13
O=C(Nc1ccc(-n2cncn2)cc1)c1ccc(C(=O)N2CCCC2c2cccnc2)s1 (stereo not drawn) ... ≤ 4.40
N#Cc1cc2ccc(Nc3ccc(N4CCNCC4)cc3)nc2n(C2CCCC2)c1=O ... < 5.30
O=C(NCc1ccccn1)c1ccc(C(=O)Nc2ccc(-n3cncn3)cc2)s1 ... ≤ 4.40
Cc1cc(CN2CCN(C)CC2)ccc1NC(=O)c1ccc(C(=O)Nc2ccc(-n3cncn3)c(F)c2)s1 ... ≥ 6.00
NS(=O)(=O)c1ccc(NC=C2C(=O)Nc3cnccc32)cc1 ... 7.00 to 8.00
O=C(Nc1ccc(-n2cncn2)c(F)c1)c1ccc(C(=O)Nc2ccccc2OC2CCCCC2)s1 ... ≤ 4.40
CCN1CCC(COc2ccc(Nc3cc(-c4cc(F)c5c(c4)N(C(C)C)CCO5)c(F)cn3)nc2)CC1 ... 7.12

Lab entry: Cyclin-dependent kinase 2 (Homo sapiens, UniProt P24941) assay, compound "CCc1nc2c(n1C(C)C)-c1nc(Nc3ccc(N4CCNCC4)cn3)ncc1CC2" , pIC50 = 5.88

Lab entry: Cyclin-dependent kinase 2 (Homo sapiens, UniProt P24941) assay, compound "COc1ccc(Cl)cc1NC(=O)c1ccc(C(=O)Nc2ccc(-n3cncn3)cc2)s1" , pIC50 = 4.40 to 6.00

Lab entry: Cyclin-dependent kinase 2 (Homo sapiens, UniProt P24941) assay, compound "C=C(C)COc1cccc(-c2cnc(Nc3ccc(N4CCN(C)CC4)cc3)o2)c1" , pIC50 = > 7.00

Lab entry: Cyclin-dependent kinase 2 (Homo sapiens, UniProt P24941) assay, compound "CCOc1cccc(-c2cnc(Nc3ccc(N4CCN(C)CC4)cc3)o2)c1" , pIC50 = > 6.00

Lab entry: Cyclin-dependent kinase 2 (Homo sapiens, UniProt P24941) assay, compound "c1cc2[nH]ncc2cc1Nc1nc(Nc2ccc3[nH]ncc3c2)c2cn[nH]c2n1" , pIC50 = 7.40

Lab entry: Cyclin-dependent kinase 2 (Homo sapiens, UniProt P24941) assay, compound "COc1cccc(-c2cnc(Nc3ccc(N4CCN(C)CC4)c(C(F)(F)F)c3)o2)c1" , pIC50 = > 6.00

Lab entry: Cyclin-dependent kinase 2 (Homo sapiens, UniProt P24941) assay, compound "O=C(Nc1ccc(-n2cncn2)cc1)c1ccc(C(=O)Nc2nc3c(s2)CCCC3)s1" , pIC50 = 4.40 to 6.00

Lab entry: Cyclin-dependent kinase 2 (Homo sapiens, UniProt P24941) assay, compound "O=C(Nc1ccc(-n2cncn2)cc1)c1ccc(C(=O)NC2CCCC2)s1" , pIC50 = 4.40 to 6.00

Lab entry: Cyclin-dependent kinase 2 (Homo sapiens, UniProt P24941) assay, compound "COc1ccc(NC(=O)c2ccc(C(=O)Nc3ccc(CN)cc3)s2)c(C)c1" , pIC50 = ≤ 4.40

Lab entry: Cyclin-dependent kinase 2 (Homo sapiens, UniProt P24941) assay, compound "N#Cc1cc2cnc(NC3CCN(S(=O)(=O)CCCCCCO)CC3)nc2n(C2CCCC2)c1=O" , pIC50 = 7.52

Lab entry: Cyclin-dependent kinase 2 (Homo sapiens, UniProt P24941) assay, compound "COc1cccc(NC(=O)c2ccc(C(=O)Nc3ccc(-n4cncn4)cc3)s2)c1" , pIC50 = ≤ 4.40

Lab entry: Cyclin-dependent kinase 2 (Homo sapiens, UniProt P24941) assay, compound CN1CCCC1CCNC(=O)c1ccc(C(=O)Nc2ccc(-n3cncn3)cc2)s1 (stereo not drawn) , pIC50 = ≤ 4.40

Lab entry: Cyclin-dependent kinase 2 (Homo sapiens, UniProt P24941) assay, compound "COc1ccc(NC(=O)c2ccc(C(=O)Nc3ccc(-n4cncn4)cc3)s2)cc1F" , pIC50 = ≤ 4.40

Lab entry: Cyclin-dependent kinase 2 (Homo sapiens, UniProt P24941) assay, compound "CCN(CC)Cc1ccc(Nc2ncc(-c3cccc(OC)c3)o2)cc1" , pIC50 = > 6.00

Lab entry: Cyclin-dependent kinase 2 (Homo sapiens, UniProt P24941) assay, compound "O=C(Nc1ccc(-n2cncn2)cc1)c1ccc(C(=O)N[C@H]2CCc3ccccc32)s1" , pIC50 = 4.40 to 6.00

Lab entry: Cyclin-dependent kinase 2 (Homo sapiens, UniProt P24941) assay, compound "Cc1nc(Nc2n[nH]c3c2CN(C(=O)N[C@H](CN(C)C)C2CCOCC2)C3(C)C)c2sccc2n1" , pIC50 = < 5.00

Lab entry: Cyclin-dependent kinase 2 (Homo sapiens, UniProt P24941) assay, compound "CNc1nc(C)c(-c2nc(Nc3ccc(C)c(S(=O)(=O)N4CCOCC4)c3)ncc2C#N)s1" , pIC50 = 6.63

Lab entry: Cyclin-dependent kinase 2 (Homo sapiens, UniProt P24941) assay, compound "O=C(NCC1CCCCC1)c1ccc(C(=O)Nc2ccc(-n3cncn3)cc2)s1" , pIC50 = ≤ 4.40
